- System: human Factor 11 mRNA
- test-summary: Dose-dependent inhibition of human Factor 11 in HepG2 cells, lipofectin 9.375-75 nM (Example 4)
- Format: cell-based
pIC50: −log10 of the molar value. Strand notation (5' to 3'): a small letter for the sugar, then the base; units joined by * are phosphorothioate-linked, units joined directly phosphodiester-linked; [ ] holds rarer units or linkages, { } end groups; capitals alone tell only the bases. e = 2'-O-(2-methoxyethyl) (MOE); [5mC] = 5-methylcytosine; d = 2'-deoxy (DNA)

substance: 417000 (antisense eT*eG*d[5mC]*dA*d[5mC]*dA*dG*dT*dT*dT*d[5mC]*dT*dG*dG*d[5mC]*eA*eG*eG*e[5mC]*e[5mC]) [compound 417000]
pIC50: 7.64
--
substance: 417003 (antisense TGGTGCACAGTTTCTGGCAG; 2-13-5 gapmer chemistry, further chemistry not given here) [compound 417003]
pIC50: 7.48
--
substance: 413467 (antisense eG*eG*eT*e[5mC]*e[5mC]*dA*d[5mC]*dA*dT*dA*dA*dA*dT*dG*dT*e[5mC]*eT*eT*eT*eG) [compound 413467]
pIC50: 7.70
--
substance: 412203 (antisense eA*eA*eT*eG*eT*d[5mC]*dT*dT*dT*dG*dT*dT*dG*d[5mC]*dA*eA*eG*e[5mC]*eG*e[5mC]) [compound 412203]
pIC50: 7.62
--
substance: 416842 (antisense eT*eG*eA*eG*eA*dT*dT*d[5mC]*dT*dT*dT*dG*dG*dG*d[5mC]*e[5mC]*eA*eT*eT*e[5mC]) [compound 416842]
pIC50: 7.51
--
substance: 416878 (antisense eG*eG*eT*d[5mC]*d[5mC]*dA*d[5mC]*dA*dT*dA*dA*dA*dT*dG*dT*d[5mC]*dT*eT*eT*eG) [compound 416878]
pIC50: 7.57

src = patent US20230263822A1
